Ref: PubChem BioAssay (EPA / NIEHS)

- Assay details: ATG_ERE_CIS: Attagene CIS-FACTORIAL HepG2 Assay for Estrogen Response Element (ERE) (AID 2282940)
- Experimental conditions: HepG2 ERE cis-reporter, Attagene RNA transcript; actives raise or lower the signal
Activity calls are given as the source filed them. How the source made its calls: active means hit-call score of the fitted dose curve at least 0.9, where 1 is the maximum; inactive means score below 0.9.
Choose the fitting class; nothing outside yes (1) for active, no (0) for inactive is accepted.

Q: Test call for this molecule, please: "COc1ccc(Nc2ccccc2)c(C)c1"
Result: yes (1)

Q: Which result was noted for this molecule in the test: "O=S(=O)(O)c1ccc(O)c2ncccc12"
Result: no (0)

Q: Tell me the recorded outcome of this test for "CC(C)OP(=O)(CP(=O)(OC(C)C)OC(C)C)OC(C)C" .
Result: no (0)

Q: Give the logged outcome of this assay for the following molecule: "O=C(COc1ccc(Cl)cc1)N1CCN(Cc2ccc3c(c2)OCO3)CC1"
Result: no (0)

Q: What did this assay record as the result for "CC(=O)C=CC1=C(C)CCCC1(C)C" ?
Result: no (0)

Q: Hi team, can someone confirm the assay call for "O=C(O)C[C@H](O)C[C@H](O)/C=C/c1c(C2CC2)nc2ccccc2c1-c1ccc(F)cc1" ?
Result: yes (1)

Q: What did this assay record as the result for "CN(C)c1ccc(O)c2c1C[C@H]1C[C@H]3[C@H](N(C)C)C(=O)C(C(N)=O)=C(O)[C@@]3(O)C(=O)C1=C2O" ?
Result: no (0)

Q: Short answer needed: outcome of this test for CCCC(C)C=O (configuration not stated) ?
Result: no (0)

Q: Just curious, what result did "CC(=O)O[C@]1(C(C)=O)CC[C@H]2[C@@H]3C[C@H](C)C4=CC(=O)CC[C@]4(C)[C@H]3CC[C@@]21C" get here?
Result: yes (1)

Q: Hi, do you know how "CC(C)(C)NC(N)=O" came out in this test?
Result: no (0)

Q: How was "CCCC(=O)c1cc(O)c(O)cc1O" classified in this test?
Result: no (0)

Q: Test call, this molecule: "NCCOCCO"
Result: no (0)
